# TARGET_OR_TEST_SYSTEM: IL-17A/A (Homo sapiens)
# Sequence (Q16552 24-155): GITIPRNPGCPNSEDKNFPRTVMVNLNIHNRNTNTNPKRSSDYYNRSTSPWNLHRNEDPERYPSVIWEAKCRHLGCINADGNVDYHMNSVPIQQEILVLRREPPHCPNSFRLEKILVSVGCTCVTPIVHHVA
# TEST_NAME: IL-17A/A HEK-Blue cell assay (SEAP reporter)
# CONDITIONS_USED: HEK-Blue IL-17A reporter cells, IL17A/A 5 ng/mL, 20 hours, SEAP read at A630; read-out: HEK-Blue IL17AA (IC50 for IL-17A/A inhibition)
pIC50: −log10 of the molar value.
Give measured pIC50 for each item. Keep answers brief.

Name the recorded pIC50 for CCn1nccc1C(=O)N[C@H](c1cn2nc(C[C@H]3C[C@@H](C(F)(F)F)CNC3=O)c([C@H]3CN(C)CCO3)nc2n1)C1CCC(F)(F)CC1 (single isomer, unassigned) [Compound 382] .
> 7.00

What does the record list as pIC50 for O=C(N[C@H](c1cn2nc(C[C@H]3C[C@@H](C(F)(F)F)CNC3=O)c([C@H]3CCCOC3)nc2n1)[C@@H]1CCCC(F)(F)C1)c1nonc1C1CC1 [Compound 249] ?
> 7.00

Record request: pIC50 value, item CCn1nccc1C(=O)N[C@H](c1cn2nc(C[C@H]3C[C@@H](C(F)(F)F)CNC3=O)c(C3COCCN3)nc2n1)C1CCC(F)(F)CC1 (stereo partly drawn) [Compound 353]
> 7.00

Please report the recorded pIC50 for CCn1nccc1C(=O)N[C@H](c1cn2nc(C[C@H]3C[C@@H](C(F)(F)F)CNC3=O)c(C3(C)CCOCC3)nc2n1)C1CCC(F)(F)CC1 [Compound 164] .
> 7.00

Which pIC50 is listed for CCn1nccc1C(=O)N[C@H](c1cn2nc(C[C@H]3C[C@@H](C(F)(F)F)CNC3=O)c(C(C)C(F)(F)F)nc2n1)C1CCC(F)(F)CC1 (stereo partly drawn) [Compound 214] ?
> 7.00

Entry under review: Cn1nccc1C(=O)N[C@H](c1cn2nc(C[C@H]3C[C@@H](C(F)(F)F)CNC3=O)c(C3CCOCC3)nc2n1)C1CCCCCC1 [Compound 290] . Reported pIC50?
> 7.00
